Experiment: restored growth of temperature-sensitive Mot1-301 yeast – S. cerevisiae, ATP luminescence, 38.5C, SUMOylation pathway inhibitor project, primary screen (AID 2716);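 note: OY570 slx delta 5 strain wells were the positive control but not used for scaling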
Conditions: S. cerevisiae Mot1-301 growth rescue, at 18.8 µM, active compounds read high, percent above DMSO median, 100 means doubled
In all, about 320,000 compounds went through this assay and about 3,300 (1%) were called active. The sample holds actives, similar compounds and a random draw of the others, so the mix is not that of the screen.
Overview of reported growth rescue across a group of compounds:
Value type: growth rescue (%)

| Compound | Reported |
| --- | --- |
| COC(=O)c1sccc1NC(=O)CC1C(=O)NCCN1C(=O)Nc1ccc(F)cc1F (stereo not given) | 848 |
| Cc1ccc(OC(=O)c2c(C)nn(-c3ccccc3)c2C)cc1 | -15.1 |
| Cc1nn(Cc2ccccc2)c(C)c1NS(=O)(=O)c1ccccc1 | 0.754 |
| O=C(CP(=O)(c1ccccc1)c1ccccc1)N1CCOCC1 | 634 |
| COC(=O)c1cc(NC(=O)CC2C(=O)NCCN2C(=O)c2ccc(F)cc2)cc(C(=O)OC)c1 (stereo not given) | 8.77 |
| COc1cccc(NC(=O)CC2C(=O)NCCN2C(=S)Nc2ccc(F)cc2)c1 (stereo not given) | 3.83 |
| COc1cc(CC(=O)N2CCC(n3nccc3NC(=O)C3CC3)CC2)cc(OC)c1OC | 7.3 |
| NS(=O)(=O)c1ccc(CNC(=S)NC(=O)c2ccco2)cc1 | -10.3 |
| O=C(NCc1ccco1)C(c1ccncc1)N(C(=O)Cn1nnc2ccccc21)c1ccccc1 (stereo not given) | 5.81 |
| CCOC(=O)C1CCN(C(=O)c2cccc(S(=O)(=O)N(CC)c3ccccc3)c2)CC1 | -7.37 |
